target: Neuropilin-1 (Homo sapiens) (UniProt O14786); assay: NRP-1 b1b2 CendR peptide binding inhibitors, dose response, biochemical, FP and AlphaScreen panel (AID 651650); conditions: NRP-1 b1b2 / RPARPAR peptide binding, FP or AlphaScreen; AlphaScreen, run 1; individual panel run IC50
Sequence (O14786 whole entry, looked up): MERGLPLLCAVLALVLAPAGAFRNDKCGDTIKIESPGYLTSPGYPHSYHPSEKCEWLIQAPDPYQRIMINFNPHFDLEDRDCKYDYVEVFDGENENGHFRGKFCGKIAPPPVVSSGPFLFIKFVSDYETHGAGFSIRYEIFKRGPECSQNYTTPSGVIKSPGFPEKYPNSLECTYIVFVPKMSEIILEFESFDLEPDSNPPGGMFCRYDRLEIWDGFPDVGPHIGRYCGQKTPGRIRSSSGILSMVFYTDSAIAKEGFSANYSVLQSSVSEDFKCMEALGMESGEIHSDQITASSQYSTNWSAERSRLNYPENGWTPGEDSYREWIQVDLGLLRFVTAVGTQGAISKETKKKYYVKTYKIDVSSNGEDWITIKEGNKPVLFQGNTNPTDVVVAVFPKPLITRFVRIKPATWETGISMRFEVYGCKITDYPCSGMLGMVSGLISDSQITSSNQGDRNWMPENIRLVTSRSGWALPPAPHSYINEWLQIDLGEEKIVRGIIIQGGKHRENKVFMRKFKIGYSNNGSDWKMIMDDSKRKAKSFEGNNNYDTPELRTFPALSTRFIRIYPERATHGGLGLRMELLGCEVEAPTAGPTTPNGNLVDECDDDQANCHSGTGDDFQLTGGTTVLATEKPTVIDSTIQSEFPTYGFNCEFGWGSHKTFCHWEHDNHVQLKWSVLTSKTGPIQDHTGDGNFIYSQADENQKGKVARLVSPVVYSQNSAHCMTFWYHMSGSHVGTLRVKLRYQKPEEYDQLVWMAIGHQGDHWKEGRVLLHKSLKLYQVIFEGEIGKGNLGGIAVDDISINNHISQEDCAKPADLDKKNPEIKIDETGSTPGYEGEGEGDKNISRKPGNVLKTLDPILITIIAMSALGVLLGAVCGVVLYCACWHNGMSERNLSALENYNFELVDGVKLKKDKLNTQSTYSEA
pIC50: −log10 of the molar value.
measuredProperty: pIC50

As a guide, the following entries are already answered.
compound=Cc1nn(-c2ccccc2)c(C)c1C(=O)OCC(=O)Nc1ccccc1 measuredon="Neuropilin-1 (Homo sapiens) (UniProt O14786)" result="< 4.00"
compound="CCCN(C(=O)Cn1c(C(F)(F)F)nc2ccccc21)C1CCS(=O)(=O)C1 (stereo not drawn)" measuredon="Neuropilin-1 (Homo sapiens) (UniProt O14786)" result=4.95

Please turn your attention to the following entry.
// pIC50 value for "CCOC(=O)C1CCN(S(=O)(=O)c2ccc3c(c2)CCN3C(=O)C2CCC2)CC1" : < 4.00

###

Here, each record is paired with measured pIC50 data.
target: Neuropilin-1 (Homo sapiens); assay: NRP-1 b1b2 CendR peptide binding inhibitors, dose response, biochemical, FP and AlphaScreen panel (AID 651650); conditions: NRP-1 b1b2 / RPARPAR peptide binding, FP or AlphaScreen; FP, run 1; individual panel run IC50
pIC50: −log10 of the molar value.

// pIC50 value for O=C(Nc1cccc(C(F)(F)F)c1)C1Cc2c(-c3cccc(F)c3)ccnc2O1 (stereo not given) : < 4.02

###

molecular target: Neuropilin-1 (Homo sapiens); assay: NRP-1 b1b2 CendR peptide binding inhibitors, dose response, biochemical, FP and AlphaScreen panel (AID 651650); settings: NRP-1 b1b2 / RPARPAR peptide binding, FP or AlphaScreen; FP, mean of runs
Active and inactive are the calls of the source.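 How the source made its calls: active means mean IC50 below 20 µM in each of the two panels, so potent in both; inactive means the rest.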
The categories you may choose from are active, inactive

# example entries with known answers
molecule=CSc1ncccc1C(=O)OCC(=O)NC1CCCCC1 label=inactive
molecule=O=C(O)C1CCN(C(=O)c2ccc(Cl)cc2)CC1 label=inactive
molecule=O=C(/C=C/c1ccccc1)c1ccccn1 label=inactive
molecule="CSc1cccc(CN2CCN(Cc3ccccc3)C(CCO)C2)c1 (stereo not given)" label=inactive
molecule="Cc1ccc(Cn2c(C(C)Nc3nc(-c4ccc(Cl)c([N+](=O)[O-])c4)cs3)nc3cc(C(F)(F)F)ccc32)cc1 (stereo not given)" label=inactive

Record request — test call for "Cc1ccc(C(=O)N/C(=C\c2ccc(-c3ccccc3[N+](=O)[O-])o2)C(=O)NCCCN2CCOCC2)cc1"
inactive

Record request — test call for "CCOC(=O)c1cnc(-c2ccccc2)nc1Oc1ccc(OC)cc1"
active

Record request — test call for "CCc1cc(C(=O)OC)c(NC(=O)c2ccoc2C)s1"
inactive

Record request — test call for "O=C(CSc1nc2ccccc2c(=O)n1-c1ccc(F)cc1F)Nc1ccc2c(c1)CCC2"
inactive

Record request — test call for "CCO[C@@H]1OC(C(=O)NCc2ccccc2)=C[C@H](c2ccc(Br)cc2)[C@H]1CCCO"
inactive

###

target: Neuropilin-1 (Homo sapiens); assay: NRP-1 b1b2 CendR peptide binding inhibitors, dose response, biochemical, FP and AlphaScreen panel (AID 651650); conditions: NRP-1 b1b2 / RPARPAR peptide binding, FP or AlphaScreen; FP, run 1; individual panel run IC50
measuredProperty: IC50

As a guide, the following entries are already answered.
compound=O=C(OCn1nnc2ccccc2c1=O)c1ccc(Br)o1 result="> 95 µM"
compound="C=CCN1C(=O)C2(C(C(=O)OCC)=C(N)Oc3ccccc32)c2c1c1ccccc1oc2=O (stereo not given)" result="> 95 µM"
compound=COC(=O)C1=C(c2ccc(F)cc2OCc2ccccc2)C[C@@H]2CC[C@H]1N2C(=O)NCCNC(C)=O result="> 95 µM"
compound=C[C@@H](NC(=O)c1nc[nH]c1C(=O)NCc1ccccc1)c1ccccc1 result="> 95 µM"

Please turn your attention to the following entry.
// IC50 value for "NS(=O)(=O)c1ccc(CNC(=S)NCc2ccc(F)cc2)cc1" : > 95 µM
